- target system: Guanidinoacetate N-methyltransferase (Homo sapiens) (UniProt Q14353)
- experiment notes: Confirmatory Screen for Target Class Profiling of Small Molecule Inhibitors of Methyltransferases (AID 1745852); further: on the % scale 0 is the no-effect control and ±100 the full control effect
- measurement setup: MTase-Glo luminescence, SAH detection, recombinant enzyme; at 57.3 µM (top of the series)
What activity change, negative = inhibition was measured for each of the following?
Give the number; % is assumed, so skip it.

In: Sample C=CC[N+]1([C@H]2C[C@H]3[C@@H]4CC[C@H]5C[C@H](OC(C)=O)[C@@H](N6CCCCC6)C[C@]5(C)[C@H]4CC[C@]3(C)[C@H]2OC(=O)CC)CCCCC1 — what was its activity change, negative = inhibition?
Out: 0

In: Consider next the compound O=C1NC2CCCCN2C12CCN(CCCN1c3ccccc3CCc3ccc(Cl)cc31)CC2 (configuration not stated) in the same way.
Out: 1.64

In: Same question for CN(C)c1cc2c(Nc3ccc4c(cnn4Cc4ccccc4)c3)ncnc2cn1 please.
Out: 6.38

In: Would you kindly repeat that for CCOC(=O)Cn1cccc1-c1nc(-c2ccc(OC)cc2)c(-c2ccc(OC)cc2)s1 ?
Out: -8.59

In: Please give the result for CC(C)N(CCC(=O)c1ccc2ccccc2c1)Cc1ccccc1 too.
Out: 9.33

In: Then this compound: Nc1c(NC/C=C\COc2cc(CN3CCCCC3)ccn2)c(=O)c1=O
Out: 2.26

In: Would you kindly repeat that for CCN1C(=O)c2ccccc2C1Nc1ccc(OCCN2CCCCC2)cc1 (configuration not stated) ?
Out: 1.78
